- Tested on: Plasmodium falciparum
- experiment.description: Confirmatory screen in NF54 pLDH assay, in single point, at 2uM, 72h
- Assay type: functional, Erythrocyte
- condition: timepoint 72 hour
The campaign covered roughly 4,800 compounds. About 410 (8.5%) showed an effect of 50% or more. The sample as a whole holds a higher share of strong results than the screen did.
Below is a list of entries, each paired with its recorded % Inhibition value.

Sample records with % Inhibition:
Oc1ccc(OC(F)(F)F)cc1-c1ccc2nccn2n1; 92%
CCN(Cc1cnn(-c2cccc(Cl)c2)c1)CC1CCN(C2CCN(C)CC2)CC1; 92%
CCN(Cc1[nH]c2ccc(Cl)cc2c1C)CC1CCN(C2CCN(C)CC2)CC1; 102%
Fc1ccc(N2CCC(N[C@@H]3COC4(CCNCC4)C3)CC2)cc1F; 6%
O[C@H]1CCN(Cc2cccc(NCc3cn4ccnc4s3)c2)C1; 45%

Fill in the recorded % Inhibition for this compound, with Plasmodium falciparum as test system: CN(C)CCN1CCC(CNCc2ccc3ncccc3c2)CC1
29%

Fill in the recorded % Inhibition for this compound, with Plasmodium falciparum as test system: Cc1ccc(-c2cc(C(=O)NC3CCN(C4CCN(C)CC4)CC3)n[nH]2)cc1C
102%

Fill in the recorded % Inhibition for this compound, with Plasmodium falciparum as test system: CCc1ccc2ncnc(NCCCN3CCN(CCO)CC3)c2c1
85%

Fill in the recorded % Inhibition for this compound, with Plasmodium falciparum as test system: O[C@@H](CNCc1cc2cc(Cl)c(Cl)cc2[nH]1)c1ccc(F)cc1
80%

Fill in the recorded % Inhibition for this compound, with Plasmodium falciparum as test system: Cc1cc(N2CCC(NCCc3c[nH]cn3)CC2)nc(-c2ccccc2)n1
11%

Fill in the recorded % Inhibition for this compound, with Plasmodium falciparum as test system: NCC1(O)CCN(c2ccnc3cc(F)c(Cl)cc23)CC1
97%

----------
- System: Plasmodium falciparum
- experiment.description: Confirmatory screen in NF54 pLDH assay, in single point, at 2uM, 72h
- Format: functional, Erythrocyte
- condition: timepoint 72 hour
About 410 (8.5%) of roughly 4,800 compounds showed an effect of 50% or more. This is one part of a sample in which strong results are shown more often than they occur.
reported.endpoint: % Inhibition
The number alone won't do; follow it with the unit.

Sample records with % Inhibition:
O=C(NCCNc1ccnc2ccncc12)c1ccc(C(F)(F)F)cc1; 43%
O=C1CN(C(=O)c2ccnc3ccccc23)CCN1Cc1ccccc1F; 63%

What measured % Inhibition goes with CN(Cc1cn(CC(N)=O)c2ccccc12)CC1CCN(CCc2ccc(F)cc2)CC1 ?
41%

What measured % Inhibition goes with CN([C@@H](c1ccccc1)c1ccccc1Br)S(=O)(=O)c1c[nH]c2ncccc12 ?
67%

What measured % Inhibition goes with Cc1ccccc1CN1CCC(CNc2c3c(nc4ccccc24)CCC3)CC1 ?
103%

What measured % Inhibition goes with Cc1ccc2[nH]c(-c3cc4n(n3)CCN(c3ccnc(N)n3)C4)nc2c1C ?
97%

What measured % Inhibition goes with COc1ccc2[nH]cc(-c3ccc(N)nc3)c2c1 ?
-21%

What measured % Inhibition goes with CC(C)CCOc1ccc2[nH]c(-c3cc(N4CCC[C@@H]4CS(C)(=O)=O)ccn3)cc2c1 ?
98%

What measured % Inhibition goes with CCNc1cc(C)nc(NCCNC(=O)Nc2cc(F)cc(F)c2)n1 ?
92%

What measured % Inhibition goes with CCCc1cccc(CNC2CCN(C3CCN(C)CC3)CC2)c1 ?
71%

What measured % Inhibition goes with N#Cc1ccc(N2C[C@H](COCC3CC3)C3(CCN(Cc4cccc(O)c4)CC3)C2)cc1C(F)(F)F ?
89%

What measured % Inhibition goes with CC1(N2CCC2)CCC(NC[C@H]2CCN(Cc3ccccc3)C2)CC1 (some centres undefined) ?
66%

What measured % Inhibition goes with Fc1cccc(Cl)c1CN1CCC(NC[C@H]2CCCOC2)CC1 ?
21%

What measured % Inhibition goes with CNc1nc(N[C@H]2CCCN(Cc3ccc(Cl)cc3)C2)nc2c1CCC2 ?
100%

What measured % Inhibition goes with Cc1cc(NCCCN2CCC[C@H](O)C2)c2cc(F)ccc2n1 ?
31%

What measured % Inhibition goes with Nc1cc(N2CCC(c3nc4cc(F)ccc4[nH]3)CC2)nc(N2CCOCC2)n1 ?
42%

What measured % Inhibition goes with Cc1ccc2nc(CCCNC3CCN(c4cc(C)nc(N)n4)CC3)oc2c1 ?
59%

What measured % Inhibition goes with COCCN1CCC[C@@]2(CCN(c3ccnc4cc(Cl)ccc34)C2)C1 ?
101%

What measured % Inhibition goes with CCOc1ccc2nc(CN(CC)CC3CCN(C4CCN(C)CC4)CC3)ccc2c1 ?
99%

What measured % Inhibition goes with C[C@@H](CNC1CCN(C2CCN(C)CC2)CC1)c1cccc(Cl)c1 ?
103%

What measured % Inhibition goes with Cc1nc(-c2ccccn2)nc(NC2CCN(CC(F)F)CC2)c1C ?
24%

What measured % Inhibition goes with c1ccc(CN2CCC(CCNC[C@@H]3CCCN4CCCC[C@H]34)CC2)cc1 ?
63%

What measured % Inhibition goes with COCCN1CC[C@H](CN(C)c2ccnc3cc(Cl)ccc23)C1 ?
102%

What measured % Inhibition goes with Cc1cnccc1NCCNCc1ccc(OC(C)C)c(Cl)c1 ?
84%
